Recorded values, source patent US8030327B2.

Target: PLK1-T210D (human active type PLK1) (Homo sapiens, UniProt P53350, T210D)
Construct: a baculovirus expressing full-length human PLK1; GST (glutathione S-transferase) (N)
Sequence (P53350 whole entry T210D): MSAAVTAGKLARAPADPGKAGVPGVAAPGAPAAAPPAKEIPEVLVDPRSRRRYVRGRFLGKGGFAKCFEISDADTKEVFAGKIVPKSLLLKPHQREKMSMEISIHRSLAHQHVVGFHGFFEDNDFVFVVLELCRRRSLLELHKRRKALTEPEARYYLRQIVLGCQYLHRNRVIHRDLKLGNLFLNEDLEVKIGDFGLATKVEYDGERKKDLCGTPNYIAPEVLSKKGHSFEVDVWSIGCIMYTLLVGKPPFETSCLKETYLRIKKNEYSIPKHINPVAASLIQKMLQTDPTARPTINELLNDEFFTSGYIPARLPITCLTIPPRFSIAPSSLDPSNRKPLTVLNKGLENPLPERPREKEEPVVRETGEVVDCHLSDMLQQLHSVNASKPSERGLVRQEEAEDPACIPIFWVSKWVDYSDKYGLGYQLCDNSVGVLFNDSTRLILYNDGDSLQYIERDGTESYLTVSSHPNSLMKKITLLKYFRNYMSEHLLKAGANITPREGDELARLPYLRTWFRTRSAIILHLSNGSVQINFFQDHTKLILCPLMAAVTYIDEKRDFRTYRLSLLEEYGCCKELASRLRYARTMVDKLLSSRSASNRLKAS
Experiment: Measurement of PLK1-T210D activity (33P-ATP, phosphocellulose filter)
Conditions: 50 μM substrate peptide, 50 μM ATP, 25° C., 20 minutes, read-out: PLK1-T210D inhibitory activity
Property Name: IC50 (µM)
The answer is to be given in µM; state only the numeric part.

What value of measured IC50 is listed for C[C@@H](Oc1cc(-c2cnc3ccc(CN4CCNCC4)cn23)sc1C(N)=O)c1ccccc1Cl ?
0.022

Request: CC(Oc1cc(-c2cnc3ccccn23)sc1C(N)=O)c1ccccc1[N+](=O)[O-] (centres unmarked)
0.012
